For each of the binders below, state its Fold Cho P2X7/wt (phage ELISA).
Assayed System: T1, mouse P2X7 (mouse, UniProt Q9Z1M0 1-595)
T1 construct: on transfected CHO or Hek293 cells, or endogenous on Yac-1 cells; also called mP2X7; mouse purinoceptor P2X7
T1 sequence: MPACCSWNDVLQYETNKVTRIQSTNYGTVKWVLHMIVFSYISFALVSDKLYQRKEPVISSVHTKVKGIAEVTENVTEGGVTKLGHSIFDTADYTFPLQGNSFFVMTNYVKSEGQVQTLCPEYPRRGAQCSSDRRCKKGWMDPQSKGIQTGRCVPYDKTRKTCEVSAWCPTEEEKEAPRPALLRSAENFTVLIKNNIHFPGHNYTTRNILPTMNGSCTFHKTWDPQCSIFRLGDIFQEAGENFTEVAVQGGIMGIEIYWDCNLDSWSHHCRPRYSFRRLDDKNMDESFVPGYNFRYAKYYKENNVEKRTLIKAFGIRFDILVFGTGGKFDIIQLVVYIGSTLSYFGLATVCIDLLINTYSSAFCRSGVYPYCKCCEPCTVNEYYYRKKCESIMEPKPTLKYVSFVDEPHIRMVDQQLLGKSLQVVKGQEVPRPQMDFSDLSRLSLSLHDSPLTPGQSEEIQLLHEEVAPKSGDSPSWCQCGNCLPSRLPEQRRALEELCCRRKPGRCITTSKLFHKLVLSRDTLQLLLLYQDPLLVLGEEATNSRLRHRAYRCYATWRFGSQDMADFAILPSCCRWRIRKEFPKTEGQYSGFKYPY
Experiment: phage ELISA on fixed mP2X7-CHO vs untransfected CHO cells;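 note: phage culture supernatant diluted 10-fold, applied for 1 h to paraformaldehyde-fixed, BSA-blocked cells in 96-well plates, with bound phage read via HRP-linked anti-M13 antibody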
Give bare numbers, in fold.

Recorded Fold Cho P2X7/wt (phage ELISA), per entry:
Binder	Fold Cho P2X7/wt (phage ELISA) [fold]
P2X7PMP13A7 (VHH, family 22; on phage or c-myc/His6-tagged in assays) VHH: EVQLVESGGGLVQPGESLRLSCTASRFMLDYYDIGWFRQAPGKEREGVSCRFTNDGSTAYADSVKGRFTISRDIVKHTVYLQMNSLQPEDTAVYYCAAGPLTKRRQCVPGDFSMDFWGEGTLVTVSS	25
P2X7PMP7G5 (VHH, family 12; on phage or c-myc/His6-tagged in assays) VHH: EVQLVESGGGLVQSGGSLRLSCAGSGFSYYIIGWFRQAPGKEREEVSCIRVTDGSTYYTNSVKGRFTMSRDNAENTVYLQMNSLKPEDTAVYSCATECQRWAYPNRIGARGQGTQVTVSS	30
P2X7PMP8G11 (VHH, family 5, 1; on phage or c-myc/His6-tagged in assays; also called 8011) VHH: AVQLVESGGGLVQAGGSLRLSCAASGNFFRVNTMAWYRQAPGKQRELVADITRGDRTNYADTVNGRFTISRDNVRNTVYLQMNGLRPEDTAAYYCYAVIELGVLEPRDYWGQGTQVTVSS	26

Would you kindly look at the next entry?
Query (binder): P2X7PMP8F5 (VHH, family 5, 2; on phage or c-myc/His6-tagged in assays) VHH: EVQLVKSGGGLVQAGGSLRLSCAASGSFFRVNNMAWYRQAPGKQRELVADITRGDRTNYADSVNGRFTISRDNVRNTVYLQMNGLKPEDTAVYYCYARIELGPLVPRDYWGQGTQVTVSS ; field requested: Fold Cho P2X7/wt (phage ELISA) 16
